- method summary: Toxicity liver stage against HepG2, at 10uM
- Format: cell-based
- Design: test concentration 10 uM, cell line HepG2-A16-CD81EGFP
- measurement context: human, HepG2-A16-CD81EGFP cells; read-out: INHIBITION
observation type: cytotoxicity at 10 µM (%)

molecule="Cc1cnc2c(S(=O)(=O)N(C)C3CCS(=O)(=O)C3)cccc2c1 (centres undefined)" numeric_result=-5.44
molecule=CC(C)(C)c1coc([C@@H]2COCCN2Cc2csnn2)n1 numeric_result=3.33
molecule=Cc1ccc2[nH]c(=O)cc(C(=O)NCCCn3nccc3C3CC3)c2c1 numeric_result=-4.35
molecule="CCCS(=O)(=O)CCN1CCOC(c2ccsc2)C1 (centres undefined)" numeric_result=-2.69
molecule="c1ncn(CC2CCCN(CC3CCCCC3)C2)n1 (centres undefined)" numeric_result=4.61
molecule=CCNc1cc2c(nn1)CCN(C(=O)c1ccc(-n3cccn3)nc1)C2 numeric_result=5.05
molecule="CNC(=O)C1CCC(NC(=O)N(C)Cc2c(C)noc2C)CC1 (centres undefined)" numeric_result=-13.7
molecule=Cc1cn2nc(N3CCN(Cc4nc(C(C)C)no4)CC3)sc2n1 numeric_result=-7.27
molecule=CC(C)[C@H]1CN(CCCO)C[C@@H]1NC(=O)CCC(F)(F)F numeric_result=-0.6
molecule="Cc1sc2nc(SC(C)c3nc(C(C)C)no3)nc(N)c2c1C (centres undefined)" numeric_result=-2.4
molecule="Cn1cccc1C(O)CNC(=O)COc1ccccc1F (centres undefined)" numeric_result=-2.54
molecule="CO[C@H]1CN(C(=O)OC(C)(C)C)CC1NCc1cc[nH]c1 (some centres undefined)" numeric_result=-46.6
molecule="O=C(CCc1cccs1)N1CCCC1c1noc(C2CC2)n1 (centres undefined)" numeric_result=-4.87
molecule=Cc1nc(O)cc(CCNc2nc(N(C)C)nc(C)c2C)n1 numeric_result=-3.03
molecule="Cc1ccc(CN2CCOC3(CCN(C(=O)C4CCOC4)CC3)C2)cc1 (centres undefined)" numeric_result=0.933
molecule="CC(C(=O)N1CCCN(Cc2ccc(C#N)cc2)CC1)n1ccnc1 (centres undefined)" numeric_result=-10.9
molecule=COc1ccc2c(c1)CN(Cc1ccco1)C(=O)CCN2CC(C)(C)O numeric_result=-7.08
molecule="CN(C)c1ccc2c(c1)CN(C(=O)c1ccco1)C2c1cnco1 (centres undefined)" numeric_result=31.9
molecule=O=C(CC1CC1)N1CCC2(CCCN(c3ncccn3)C2)CC1 numeric_result=-71
molecule="N#Cc1ccc(C(=O)N2CCCC3(C=Cc4ccccc4O3)CC2)cn1 (centres undefined)" numeric_result=11.8
molecule=COCc1nc(N(C)C)ncc1C(=O)OC numeric_result=13.2
molecule=Cc1cc(NC(=O)CNC(C)(C)c2ccc3c(c2)OCO3)on1 numeric_result=7.51
molecule="CCc1nnc(Nc2cc(C)nc(C3CCN(c4cnccn4)C3)n2)s1 (centres undefined)" numeric_result=4.24
molecule="CC1c2ncc(CN3CCN(C)CC3)n2CCN1Cc1cccnc1 (centres undefined)" numeric_result=-2.12

* * *

# cytotoxicity at 10 µM values compiled below
- method summary: Toxicity liver stage against HepG2, at 10uM
- Assay type: cell-based
- Design: test concentration 10 uM, cell line HepG2-A16-CD81EGFP
- measurement context: human, HepG2-A16-CD81EGFP cells; read-out: INHIBITION
observation type: cytotoxicity at 10 µM (%)

molecule=Cc1cc(C(=O)Nc2ccc(OCCN3CCN(C)CC3)cc2)[nH]n1 observation_type="cytotoxicity at 10 µM" unit_name=% numeric_result=-2.51
molecule=Cn1cc(C(=O)N2CC[C@@H]3[C@@H]2CCN3c2ncc(F)cn2)cn1 observation_type="cytotoxicity at 10 µM" unit_name=% numeric_result=13.8
molecule=CCn1nnnc1-c1cccc(NC(=O)CCn2cc(C)cn2)c1 observation_type="cytotoxicity at 10 µM" unit_name=% numeric_result=1.66
molecule="Cc1cccnc1C(=O)N1CCCC(Cc2cncc3ccccc23)C1 (stereo not drawn)" observation_type="cytotoxicity at 10 µM" unit_name=% numeric_result=-18
molecule=Cc1cc(C(=O)N2CCCS2(=O)=O)c(C)o1 observation_type="cytotoxicity at 10 µM" unit_name=% numeric_result=-11.1
molecule=Cc1ccc(C(=O)N2C[C@@H]3CCCO[C@@H]3[C@H](N3CCCC3)C2)cn1 observation_type="cytotoxicity at 10 µM" unit_name=% numeric_result=-3.8
molecule="Cc1noc2ncc(C(=O)NCC3CCOC3)cc12 (stereo not drawn)" observation_type="cytotoxicity at 10 µM" unit_name=% numeric_result=-1.47
molecule=COCCN(C)C[C@@H]1CN(C(=O)c2cccc(C(F)(F)F)c2)C[C@@H]1CO observation_type="cytotoxicity at 10 µM" unit_name=% numeric_result=-17.5
molecule="CCOCC(=O)NCC(CC)(OC)c1ccccc1 (stereo not drawn)" observation_type="cytotoxicity at 10 µM" unit_name=% numeric_result=-0.478
molecule=Cc1cnn(C2CN(c3nc(-c4ccncc4)nc4c3CCC4)C2)c1 observation_type="cytotoxicity at 10 µM" unit_name=% numeric_result=-46
molecule="CNC(=O)NC(=O)C(NCc1ccccc1)c1ccccc1 (stereo not drawn)" observation_type="cytotoxicity at 10 µM" unit_name=% numeric_result=-52.9
molecule=O=c1c(NCCOCCO)c(N2CCN(c3ccccc3)CC2)c1=O observation_type="cytotoxicity at 10 µM" unit_name=% numeric_result=-5.64
molecule=N#Cc1ccc(C(=O)N2CC[C@H]3[C@H]2CCN3CC2CC2)cc1 observation_type="cytotoxicity at 10 µM" unit_name=% numeric_result=-9.87
molecule="CCCN(CCO)C(=O)C1CCC(=O)N(Cc2ccc(Cl)cc2)C1 (stereo not drawn)" observation_type="cytotoxicity at 10 µM" unit_name=% numeric_result=10.4
molecule=O=C(c1ccc(Br)s1)N1CCN(Cc2ccc(OC(F)(F)F)cc2)CC1 observation_type="cytotoxicity at 10 µM" unit_name=% numeric_result=23.1
molecule=Cn1cnnc1C1CCN(C(=O)CCCOCc2ccccc2)CC1 observation_type="cytotoxicity at 10 µM" unit_name=% numeric_result=-7.06
molecule="Cc1cc(C)n(CC(=O)N2CCCC2c2cc3cccnc3[nH]2)n1 (stereo not drawn)" observation_type="cytotoxicity at 10 µM" unit_name=% numeric_result=3.94
molecule=CC(C)(C)C(=O)NCCC(=O)NS(=O)(=O)c1cccnc1 observation_type="cytotoxicity at 10 µM" unit_name=% numeric_result=-3.15
molecule=O=C(COCc1ccccc1)N1CCC(OCc2cccnc2)CC1 observation_type="cytotoxicity at 10 µM" unit_name=% numeric_result=4.41
molecule=CNC(=O)[C@H]1C[C@@H]2CN(C(=O)c3cncc(C)c3)C[C@@H]2N1C observation_type="cytotoxicity at 10 µM" unit_name=% numeric_result=-107
molecule=Cc1nc[nH]c1CN1CCn2nc(CN3Cc4ccccc4C3)cc2C1 observation_type="cytotoxicity at 10 µM" unit_name=% numeric_result=3.79
molecule="CCS(=O)(=O)CCN(C)C(=O)NC(C)c1ccc(C)s1 (stereo not drawn)" observation_type="cytotoxicity at 10 µM" unit_name=% numeric_result=-9.02
molecule="Cc1ccccc1CCC1CCCN(C(=O)Cc2cc(=O)[nH]c(N)n2)C1 (stereo not drawn)" observation_type="cytotoxicity at 10 µM" unit_name=% numeric_result=4.6
